The reported measurements were obtained from PubChem BioAssay AID720540.

- ASSAYED SYSTEM: Protein phosphatase EYA2 (Homo sapiens)
- ASSAY OVERVIEW: qHTS for Inhibitors of the Phosphatase Activity of Eya2: Confirmatory Assay for Cherry-picked Compounds; note: nearly all actives have a fitted effect of over 65% in size
- COND: purified EYA2 phosphatase activity, qHTS confirmation; series mostly up to 46.1 µM
Among all 1,300 compounds or so, about 460 (35%) were called active. Inconclusive results (about 39%) are left out. Calls come from the whole dose curve; as a rule, active = well fitted inhibition curve with a large enough effect; inconclusive = small, poorly fitted or top-dose-only effect; inactive = flat fitted curve, though single readings scatter. This is one part of the list.
Returns: one label drawn from true (active), false (inactive)

Inquiry: Hi team, can someone confirm the assay call for O=C(CSc1nnc2c(Cl)cc(Cl)cn12)NC1CCS(=O)(=O)C1 (stereo not given) ?
Reply text: false

Inquiry: Please share the test call associated with O=C(O)CSCc1nc2cccnc2n1C1CCCCC1 .
Reply text: false

Inquiry: Please state the recorded outcome for this molecule: CC1=C(C(=O)N2CCOCC2)CC(CC(=O)NC(c2ccccc2)c2ccccc2)C(=O)N1Cc1ccc(C(C)(C)C)cc1 (stereo not given)
Reply text: false

Inquiry: What call does the record list for C/C=C/c1ccc(OCCSc2nc(C)cc(=O)[nH]2)c(OC)c1 ?
Reply text: true

Inquiry: For Cc1cc(C)c(C#N)c(Sc2nnnn2-c2ccccc2)n1 , what call appears in the results of this test?
Reply text: false

====

- ASSAYED SYSTEM: Protein phosphatase EYA2 (Homo sapiens) (UniProt O00167)
- Sequence (O00167 whole entry, looked up): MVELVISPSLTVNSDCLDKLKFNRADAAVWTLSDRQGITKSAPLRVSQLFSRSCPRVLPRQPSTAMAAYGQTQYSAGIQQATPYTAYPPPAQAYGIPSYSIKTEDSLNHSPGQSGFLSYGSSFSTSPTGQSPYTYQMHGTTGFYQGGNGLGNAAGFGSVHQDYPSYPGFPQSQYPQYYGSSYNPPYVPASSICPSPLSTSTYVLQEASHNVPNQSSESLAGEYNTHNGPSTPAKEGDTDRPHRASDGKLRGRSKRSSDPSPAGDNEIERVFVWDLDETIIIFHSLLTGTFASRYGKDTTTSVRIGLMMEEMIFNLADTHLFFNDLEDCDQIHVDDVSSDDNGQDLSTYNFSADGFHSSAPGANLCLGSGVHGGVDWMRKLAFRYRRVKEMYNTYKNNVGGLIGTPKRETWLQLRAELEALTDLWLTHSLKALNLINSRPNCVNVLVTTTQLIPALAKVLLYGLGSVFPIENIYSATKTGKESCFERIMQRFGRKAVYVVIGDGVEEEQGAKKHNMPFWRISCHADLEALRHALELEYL
- ASSAY OVERVIEW: qHTS for Inhibitors of the Phosphatase Activity of Eya2: Confirmatory Assay for Cherry-picked Compounds; note: nearly all actives have a fitted effect of over 65% in size
- COND: purified EYA2 phosphatase activity, qHTS confirmation; series mostly up to 46.1 µM
Out of some 1,300 compounds screened, about 460 (35%) were called active. Inconclusive results (about 39%) are left out. Calls follow the shape of the dose curve; as a rule, active = well fitted inhibition curve with a large enough effect; inconclusive = small, poorly fitted or top-dose-only effect; inactive = flat fitted curve, though single readings scatter. The list shows a part of the results.
Entry note: the call must match one of Yes = active, No = inactive

Inquiry: Lab log entry: O=C(O)c1ccc(Nc2cnc3ccccc3n2)cc1 — outcome as called in the assay?
Reply text: No

Inquiry: Hi, do you know how CC(C)(C)C(=O)[C@H]1[C@H](c2ccccc2)[C@@]2(N=C(c3ccccc3)OC2=O)C2c3ccccc3C=NN21 (some centres not stated) came out in this test?
Reply text: No

Inquiry: Hey, what did the test say about COC(=O)c1ccccc1NC1=C/C(=N\S(=O)(=O)c2cccs2)c2ccccc2C1=O ?
Reply text: Yes

Inquiry: Please share the test call associated with CCC(=O)Nc1ccc(-c2nnc(SCc3ccccc3)n2C)cc1 .
Reply text: No

Inquiry: Please share the test call associated with N#C/C(=C/c1ccc(OC(=O)c2ccc(Br)s2)cc1)c1nc2ccccc2[nH]1 .
Reply text: No

Inquiry: Name the outcome recorded for Cc1c(NC(=O)c2ccco2)cccc1C(=O)NN1C(=O)c2ccccc2C1=O in the assay.
Reply text: No

Inquiry: Could you check what this test reported for Cn1c(=O)c(N)c2c3c(c(Br)ccc31)C(=O)c1ccccc1-2 ?
Reply text: Yes

Inquiry: Which outcome did this test record for the molecule CNc1c(Br)cc(C(O)C2=CCc3ccccc32)cc1Br (configuration not stated) ?
Reply text: No

Inquiry: Record lookup: outcome of this test for Cc1ccc(C(=O)N/C(=C\c2ccco2)C(=O)NCCCn2ccnc2)cc1 ?
Reply text: Yes

Inquiry: So what was the verdict on O=C1/C(=C\c2cccc([N+](=O)[O-])c2O)SC(=S)N1Cc1ccccc1 in this test?
Reply text: Yes

Inquiry: For O=C1c2ccccc2C(=O)N1CCCc1cn(C[C@H]2CC[C@@H]([C@@H]3CC[C@H](Cn4cc(CCCN5C(=O)c6ccccc6C5=O)nn4)O3)O2)nn1 , what call appears in the results of this test?
Reply text: No

Inquiry: Recorded test call requested for CCSc1nc2ccccc2n1C(=O)c1ccc(S(=O)(=O)N2CCCCC2)cc1
Reply text: No

Inquiry: Tell me the recorded outcome of this test for CNc1ccc(C=C2C=Cc3ccccc32)cc1 .
Reply text: Yes

Inquiry: Check the results log: what was the call for O=C(/C=C\c1ccccc1)Oc1cccc2cccnc12 ?
Reply text: Yes

Inquiry: Record lookup: outcome of this test for Cc1cc(NS(=O)(=O)c2ccc(NC(=O)c3cc4c(=O)n5ccccc5nc4s3)cc2)nc(C)n1 ?
Reply text: Yes

Inquiry: Would you mind telling me which call this test gave CCOc1ccc(NC(=O)C2CC(=O)N(CCc3ccc(OC)c(OC)c3)C2)cc1OCC (configuration not stated) ?
Reply text: Yes

Inquiry: Hey, what did the test say about O=C(O)c1cccc(Nc2nc(-c3ccccc3)nc3ccccc23)c1 ?
Reply text: Yes

Inquiry: Give the logged outcome of this assay for the following molecule: O=c1c(O)cccc2cc(O)c(O)c(O)c12
Reply text: Yes

Inquiry: Per the assay record, what outcome was assigned to N#C/C(=C\c1ccc(OC(=O)c2ccc(Br)s2)cc1)c1nc2ccccc2[nH]1 ?
Reply text: No

Inquiry: # lookup: test call for COc1ccccc1Nc1cc(C)nc2c(C)ccc([N+](=O)[O-])c12
Reply text: Yes

Inquiry: Identify the outcome logged in this assay for the molecule shown: O=C(CSc1nnc2c(n1)[nH]c1ccccc12)Nc1ccc(S(=O)(=O)Nc2ncccn2)cc1
Reply text: Yes

Inquiry: Identify the outcome logged in this assay for the molecule shown: O=C(Nc1ccc(-c2nc3cccnc3s2)cc1)C1CCCO1 (configuration not stated)
Reply text: No

Inquiry: Given O=C(Nc1ccc(Nc2ccccc2)cc1)c1ccc(Cl)cc1[N+](=O)[O-] , state the outcome it received in this test.
Reply text: No

Inquiry: // param item: O=C(C1=C[C@H](c2ccccc2)C[C@H](OCc2ccc(CO)cc2)O1)N1CCN(Cc2ccccc2)CC1 ; yields the recorded call
Reply text: No

Inquiry: What did this assay record as the result for O=C(Nc1nc2ccc(F)cc2s1)C1=NN(c2ccccc2)C(=O)CC1 ?
Reply text: No

Inquiry: Outcome logged for CCNc1ccc2noc3c2c1C(=O)c1ccccc1-3 in this assay:
Reply text: Yes

Inquiry: Outcome logged for O=C(CSc1ccc2nnc(-c3ccccn3)n2n1)Nc1ccccc1C(F)(F)F in this assay:
Reply text: Yes

Inquiry: Outcome? Clc1ccc(-n2nnnc2-c2cnc3ccccc3c2-c2ccccc2)cc1
Reply text: No

Inquiry: What call does the record list for CC1CN(C(=O)c2cc(S(=O)(=O)N(C)c3ccc(F)cc3)ccc2Cl)CC(C)O1 (configuration not stated) ?
Reply text: No

Inquiry: Could you check what this test reported for O=C(CSc1ccc2nnc(-c3ccccn3)n2n1)Nc1ccccc1 ?
Reply text: Yes

Inquiry: Which outcome was assigned to O=C(CSc1ccc2nnc(-c3ccccn3)n2n1)Nc1ccccc1F in this test?
Reply text: Yes

Inquiry: State the result this test recorded for Cc1cc(NS(=O)(=O)c2ccc(NC(=O)c3cnc(Cl)c(Cl)c3)cc2)nc(C)n1 .
Reply text: Yes

Inquiry: Recorded test outcome, item COc1ccccc1/C=C/C(=O)Oc1cccc2cccnc12
Reply text: Yes

Inquiry: Please share the test call associated with Cc1nn(-c2ccccc2)c2c1C(c1cccnc1)N1C=C(S(=O)(=O)N3CCCCC3)C=CC1=N2 (configuration not stated) .
Reply text: No

Inquiry: I would be grateful if you could indicate the recorded call for CN(C)c1ccc(N=c2sc3ccccc3n2C)cc1 .
Reply text: Yes

Inquiry: Please indicate how the test categorized OC(COc1ccc2cc(Br)ccc2c1)Cn1ccnc1 (configuration not stated) .
Reply text: No

Inquiry: Could you kindly confirm the outcome this assay logged for NCC(=O)Nc1ccc(Cl)cc1C(=O)c1ccc[nH]1 ?
Reply text: No

Inquiry: For this molecule, state the assay outcome: CN1/C(=C\C(=S)NC(=O)c2ccccc2Cl)C(C)(C)c2ccccc21
Reply text: Yes

Inquiry: Please indicate how the test categorized COC(=O)C(Sc1ccc(Cl)cc1)C1SC(=S)N(Cc2ccccc2)C1=O (configuration not stated) .
Reply text: No

Inquiry: Give the logged outcome of this assay for the following molecule: N#C/C(=C\c1ccc(OC(=O)c2ccc(Cl)s2)cc1)c1nc2ccccc2[nH]1
Reply text: No

Inquiry: Tell me the recorded outcome of this test for CSc1ccc(CNc2ncc(-c3cccc([N+](=O)[O-])c3)n2C)cc1 .
Reply text: Yes

Inquiry: Outcome logged for Cc1cccc(N2CCN(C(=O)C3COc4ccccc4O3)CC2)c1C (configuration not stated) in this assay:
Reply text: No

====

- ASSAYED SYSTEM: Protein phosphatase EYA2 (Homo sapiens) (UniProt O00167)
- ASSAY OVERVIEW: qHTS for Inhibitors of the Phosphatase Activity of Eya2: Confirmatory Assay for Cherry-picked Compounds; note: nearly all actives have a fitted effect of over 65% in size
- COND: purified EYA2 phosphatase activity, qHTS confirmation; series mostly up to 46.1 µM
- Text: The Eya protein family is an essential co-activator of the Six1 transcription factor. Six1 is a developmental gene that is abnormally re-expressed in a large percentage of breast cancers. […] A 1536 well format, fluorescence based qHTS assay was developed and used to target the phosphatase activity of Eya2 (AID 488837). […] This assay assessed the activity of the primary screen cherry-picked compounds against Eya2. […]
In all, about 1,300 compounds went through this assay and about 460 (35%) were called active. About 39% were inconclusive and are not listed. Calls follow the shape of the dose curve; as a rule, active = well fitted inhibition curve with a large enough effect; inconclusive = small, poorly fitted or top-dose-only effect; inactive = flat fitted curve, though single readings scatter. The list shows a part of the results.
Your reply should match one of these outcome classes. t (active), f (inactive)

Inquiry: Short answer needed: outcome of this test for COc1ccc(NC(=O)c2cc(-c3ccco3)nc3ccccc23)cn1 ?
Reply text: f

Inquiry: Give the logged outcome of this assay for the following molecule: CC1(C)Nc2cccc3c(N=Nc4ccc(N=Nc5ccccc5)c5ccccc45)ccc(c23)N1
Reply text: t

Inquiry: Please share the test call associated with COc1cc(/C=C2\SC(=S)N(CCC(=O)Nc3cccc(O)c3)C2=O)cc(OC)c1OC .
Reply text: f

Inquiry: Please indicate how the test categorized COC(=O)c1c(C)[nH]c(C(=O)C(C)OC(=O)C2CC(=O)N(c3ccc(C)cc3)C2)c1C (stereo not given) .
Reply text: f

Inquiry: # fetch the recorded call for CSc1cccc(NC(=O)CCCOc2cc(=O)n(C)c3ccccc23)c1 here
Reply text: f

Inquiry: Would you mind telling me which call this test gave CCOC(=O)Cc1nnc(NC(=O)CSc2nnc3c4ccccc4n(C)c3n2)s1 ?
Reply text: t

Inquiry: Tell me the assay call for CC1CCN(CC2C(=O)O[C@@H]3C[C@@]4(C)CCC[C@H](C)C4=C[C@H]23)CC(C)(C)C1 (stereo not given in full) please.
Reply text: f

Inquiry: Assay outcome for COc1ccc(F)cc1-c1cc(NC=O)c2ncc(-c3cccc(C(F)(F)F)c3)n2c1 : what was it?
Reply text: f

Inquiry: Please indicate how the test categorized CNC(=O)c1cc2c(cn1)[nH]c1ccccc12 .
Reply text: f

Inquiry: What call does the record list for O=C(Oc1ccc(C(=S)N2CCOCC2)cc1)c1ccccc1[N+](=O)[O-] ?
Reply text: t
